TEST TARGET: Ubiquitin carboxyl-terminal hydrolase 8 (Homo sapiens)
MEASUREMENT PROTOCOL: blocks human USP8 ubiquitin-rhodamine cleavage (AID 1645853)
STATED CONDITIONS: purified USP8, Ub-rhodamine cleavage fluorescence, 30 min; at 20 µM; stronger effect = higher value
The campaign covered roughly 47,000 compounds. About 2,000 (4.3%) were called active. The entries come from a sample that favours actives as a whole.
READOUT: inhibition (%)
Give just the numeric value; % need not be written.

Which inhibition value is on record for O=C(c1ccccc1)N1CCCCCC1C1CCNCC1 (stereo unspecified) ?
-4.33

Which inhibition value is on record for COc1ccc(-c2cnoc2-c2ccc(O)cc2O)cc1OC ?
22

Which inhibition value is on record for CCOC(=O)c1cc2c(ccn2C)n1CC(=O)N1CCc2ccccc2C1 ?
-42.9

Which inhibition value is on record for Cc1c(C)n(-c2cccnc2)c2ncn3nc(-c4ccccn4)nc3c12 ?
-3.69

Which inhibition value is on record for CCOC(=O)c1cc2c(ccn2C)n1CC(=O)N1CCC(C)CC1 ?
-57.3

Which inhibition value is on record for Cc1ccc(-c2ncc(C(=O)Nc3ccccc3C)c(-c3ccncc3)n2)cc1 ?
41

----------
TEST TARGET: Ubiquitin carboxyl-terminal hydrolase 8 (Homo sapiens)
MEASUREMENT PROTOCOL: blocks human USP8 ubiquitin-rhodamine cleavage (AID 1645853)
STATED CONDITIONS: purified USP8, Ub-rhodamine cleavage fluorescence, 30 min; at 20 µM; stronger effect = higher value
Screen size: about 47,000 compounds; about 2,000 (4.3%) were called active. The sample holds actives, similar compounds and a random draw of the others, so the mix is not that of the screen.
Form field: inhibition (one value per entry).
Give just the numeric value; % need not be written.

{"columns": ["COMPOUND", "ENDPOINT RESULT"],
 "data": [
  ["CC(C)C(=O)N1[C@@H](c2ccccc2)C[C@@H]2NC(=O)CCC[C@H]21", 1.29],
  ["Cc1ccc(Nc2nc(NCC(=O)Nc3cc(C)ccc3C)nc(Nc3ccc(C)cc3)n2)cc1", 38],
  ["O=C(CN1CCC(c2nc(-c3ccccc3)no2)CC1)Nc1ccccc1", 3.46],
  ["O=C(CCOc1ccccc1F)Nc1ccc2c(c1)OCO2", 7.17],
  ["COc1ccc(-c2nc3c(c(=O)c4ccccc4n3C)c(=O)n2CCc2ccc(OC)c(OC)c2)cc1", 33.9]
]}

Consider the record given below.
Which inhibition value is on record for c1ccc(CN2CCCC(c3nc(-c4cccnc4)n[nH]3)C2)cc1 (stereo not drawn) ?
-0.172

----------
TEST TARGET: Ubiquitin carboxyl-terminal hydrolase 8 (Homo sapiens) (UniProt P40818)
Sequence (P40818 whole entry, looked up): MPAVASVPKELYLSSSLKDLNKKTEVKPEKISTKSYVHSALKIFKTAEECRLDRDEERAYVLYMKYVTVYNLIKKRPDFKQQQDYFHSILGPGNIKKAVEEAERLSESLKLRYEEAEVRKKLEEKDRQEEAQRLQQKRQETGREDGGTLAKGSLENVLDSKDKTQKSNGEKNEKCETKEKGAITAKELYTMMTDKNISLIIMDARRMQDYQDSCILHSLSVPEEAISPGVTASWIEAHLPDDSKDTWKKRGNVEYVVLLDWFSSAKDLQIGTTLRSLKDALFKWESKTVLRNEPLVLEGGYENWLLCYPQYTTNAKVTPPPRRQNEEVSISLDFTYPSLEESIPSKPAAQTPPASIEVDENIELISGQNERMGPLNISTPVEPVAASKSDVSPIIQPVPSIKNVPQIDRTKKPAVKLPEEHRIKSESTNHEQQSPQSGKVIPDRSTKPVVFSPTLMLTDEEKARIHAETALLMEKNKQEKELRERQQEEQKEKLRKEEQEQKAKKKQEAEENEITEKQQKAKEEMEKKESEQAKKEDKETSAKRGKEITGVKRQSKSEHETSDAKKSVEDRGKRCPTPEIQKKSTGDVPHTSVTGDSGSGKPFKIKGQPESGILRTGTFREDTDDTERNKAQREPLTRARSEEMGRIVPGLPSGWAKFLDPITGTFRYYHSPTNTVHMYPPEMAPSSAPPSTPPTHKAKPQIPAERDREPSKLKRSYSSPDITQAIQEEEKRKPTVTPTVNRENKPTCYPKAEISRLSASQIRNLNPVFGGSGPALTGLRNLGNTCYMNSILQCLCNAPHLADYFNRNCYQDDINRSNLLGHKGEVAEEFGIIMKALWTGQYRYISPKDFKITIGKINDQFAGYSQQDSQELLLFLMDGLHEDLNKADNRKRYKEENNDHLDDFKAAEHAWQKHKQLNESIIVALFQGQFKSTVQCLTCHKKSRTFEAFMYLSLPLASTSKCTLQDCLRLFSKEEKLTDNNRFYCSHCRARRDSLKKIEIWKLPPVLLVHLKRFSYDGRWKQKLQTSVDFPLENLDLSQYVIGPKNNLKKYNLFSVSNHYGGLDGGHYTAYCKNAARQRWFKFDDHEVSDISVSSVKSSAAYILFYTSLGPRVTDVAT
MEASUREMENT PROTOCOL: blocks human USP8 ubiquitin-rhodamine cleavage (AID 1645853)
STATED CONDITIONS: purified USP8, Ub-rhodamine cleavage fluorescence, 30 min; at 20 µM; stronger effect = higher value
The campaign covered roughly 47,000 compounds. About 2,000 (4.3%) were called active. For the sample, actives were picked, then their nearest neighbours and some compounds at random.
READOUT: inhibition (%)
Give just the numeric value; % need not be written.

These solved cases illustrate the format of a correct answer.
{"columns": ["MOLECULE", "UNIT INFO", "inhibition"],
 "data": [
  ["Cn1cc2nc(SCC(=O)NCc3ccc(Cl)cc3)n(CC3CC3)c(=O)c2n1", "%", 38.7],
  ["Nc1ccc(C(=O)OCC(=O)NC2CCCc3ccccc32)cc1[N+](=O)[O-] (configuration not stated)", "%", 50.4],
  ["O=S1(=O)c2ccccc2C(Oc2ccccc2)CN1CCO (configuration not stated)", "%", -13.4],
  ["Cc1ccc(CNC(=O)CCCn2c(=O)c3sccc3n(CC(=O)OCc3ccccc3)c2=O)cc1", "%", 63.4],
  ["FC(F)(F)c1ccc(-c2cnc([C@@H]3COCCN3C3CCOCC3)[nH]2)cc1", "%", 2.96]
]}

Consider the record given below.
Which inhibition value is on record for COc1ccccc1CNC(=O)c1ccc(Cl)c(S(=O)(=O)N2CCCC2)c1 ?
-5.09
